- tested.on: Bcl-xL (Homo sapiens, UniProt Q07817, DEL45-85)
- Construct: 8xHis (pHis-TEV vector) (N); made in house; host or cells: E. coli BL21(DE3)
- Sequence (Q07817 with tags, fused parts or gaps DEL45-85): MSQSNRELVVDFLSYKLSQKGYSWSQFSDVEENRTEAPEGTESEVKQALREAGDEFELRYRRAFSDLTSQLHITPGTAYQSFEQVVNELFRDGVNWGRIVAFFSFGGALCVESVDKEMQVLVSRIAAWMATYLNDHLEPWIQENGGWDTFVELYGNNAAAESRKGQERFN
- method.notes: SPR competitive solution binding assay (immobilized Bim BH3 peptide)
- recorded.conditions: read-out: SPR Bcl-xL IC50[nM] ± SD
Ends that are not written are not given here.

{"chain": "PAELEVECATQLRRFGDKLNFRQKLL [Noxa]", "tested.on": "Bcl-xL (Homo sapiens, UniProt Q07817, DEL45-85)", "IC50": "> 30000 nM"}

----------
- tested.on: Bcl-xL (Homo sapiens, UniProt Q07817, DEL45-85)
- Construct: 8xHis (pHis-TEV vector) (N); made in house; host or cells: E. coli BL21(DE3)
- method.notes: FP competitive binding assay (FAM-Bak tracer)
- recorded.conditions: read-out: FP assay Bcl-xL Ki[nM] ± SD
Ends that are not written are not given here.

{"chain": "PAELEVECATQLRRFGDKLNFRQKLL [Noxa]", "Ki": "> 10000 nM"}

Hello, the source for this data is paper PMC3717276, in case you need it.
